system-name: T1, aureolysin isoform I, mature catalytic domain (A209–E509) (Staphylococcus aureus (strain V8-BC10), UniProt P81177 209-509)
T1 sequence (looked up): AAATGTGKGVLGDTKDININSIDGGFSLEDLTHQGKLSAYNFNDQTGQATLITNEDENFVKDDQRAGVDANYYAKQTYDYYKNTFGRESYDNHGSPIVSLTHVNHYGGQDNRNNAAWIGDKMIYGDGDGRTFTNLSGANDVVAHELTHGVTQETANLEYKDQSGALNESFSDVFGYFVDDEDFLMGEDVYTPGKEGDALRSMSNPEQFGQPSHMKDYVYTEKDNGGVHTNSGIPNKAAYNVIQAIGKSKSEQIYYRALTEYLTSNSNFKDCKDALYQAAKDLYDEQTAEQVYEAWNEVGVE
assay-procedure: enzyme inhibition assay
measured-parameter: Ki (µM)
Supply the numeric figure in µM, leaving out any unit text.

Inquiry: Record request: Ki value, item I57F-IMPI (natural protein, Galleria mellonella) GMSIVLICNGGHEYYECGGACDNVCADLHIQNKTNCPIINFRCNDKCYCEDGYARDVNGKCIPIKDCPKIRS
Reply text: 0.346

Values were extracted from paper PMC9002140.
